- Assayed Target: T1, His-tagged P3028 (human, also: His tag, length and end not given here)
- T1 construct: in solution at 0.5 ug/mL, detected with mouse anti-His antibody and rabbit anti-mouse peroxidase (rampo); also called PGE73; His-tag-P3028; not shown: His tag
- T1 peptide: VFDEFKPLVEEPQNLIK
- Protocol Summary: PEPSCAN ELISA, peptide on chip;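 also: binding detected by peroxidase ELISA with ABTS, OD405 colour imaged by CCD camera before and after staining, raw OD405 reported as rampo units, air-bubble wells scored 0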
Ends that are not written are not given here.
Provide the reported RAMPO Score of each item.
Numbers only, in rampo units.

Here are 8 binders together with their reported answers.
{"Binder": "KKQDTFFVKLSLFTER [SEQ ID NO 293]", "Readout Unit": "rampo units", "Recorded Measurement": 473}
{"Binder": "KKLDQFFVKLSLFTER [SEQ ID NO 308]", "Readout Unit": "rampo units", "Recorded Measurement": 535}
{"Binder": "KKDDTFFVKLSLFTER [SEQ ID NO 284]", "Readout Unit": "rampo units", "Recorded Measurement": 492}
{"Binder": "KKLDTFFVKQSLFTER [SEQ ID NO 339]", "Readout Unit": "rampo units", "Recorded Measurement": 470}
{"Binder": "IKLDTFFVKLSLFTER [SEQ ID NO 273]", "Readout Unit": "rampo units", "Recorded Measurement": 483}
{"Binder": "KKLDTFFVKLSLFIER [SEQ ID NO 379]", "Readout Unit": "rampo units", "Recorded Measurement": 375}
{"Binder": "KKLDTFFVKTSLFTER [SEQ ID NO 342]", "Readout Unit": "rampo units", "Recorded Measurement": 399}
{"Binder": "KKLDTFQVKLSLFTER [SEQ ID NO 322]", "Readout Unit": "rampo units", "Recorded Measurement": 511}

Working through the 4 binders below one at a time, give RAMPO Score for each.
1. KKSDTFFVKLSLFTER [SEQ ID NO 295]
2. KKLDTFFVKLSLVTER [SEQ ID NO 374]
3. KKLDTFFVKLSLCTER [SEQ ID NO 362]
4. KKLDTFFVKLSLTTER [SEQ ID NO 373]

393
446
400
494

Working through the 2 binders below one at a time, give RAMPO Score for each.
1. KKLDPFFVKLSLFTER [SEQ ID NO 307]
2. KKLDTFFRKLSLFTER [SEQ ID NO 330]

1: 427; 2: 365

Working through the 8 binders below one at a time, give RAMPO Score for each.
1. KKLDCFFVKLSLFTER [SEQ ID NO 304]
2. GKLDTFFVKLSLFTER [SEQ ID NO 271]
3. KKHDTFFVKLSLFTER [SEQ ID NO 288]
4. KKLETFFVKLSLFTER [SEQ ID NO 299]
5. KKLDTFVVKLSLFTER [SEQ ID NO 325]
6. EKLDTFFVKLSLFTER [SEQ ID NO 270]
7. KKLYTFFVKLSLFTER [SEQ ID NO 303]
8. KKLDYFFVKLSLFTER [SEQ ID NO 312]

[449, 367, 477, 417, 527, 396, 422, 425]
